- assay-remarks: yeast display, Sf9 membrane polyspecificity reagent, FACS + sequencing; frameworks hold sequencing errors
property-label: polyreactivity (PSR sort gate)

[[record]]
polymer_sequence = "QVQLVESGGGLVQAGGSLRLSCAASGFTLQVYDMGWYRQAPGKERELVADISGSGDSTNYADSVKGRFTISRDNAKNTVYLQMNSLKPEDNAVYYCAAEVRGGYYGYDYWGQGTQVTVSS"
property_label = "polyreactivity (PSR sort gate)"
recorded_measurement = "low polyreactivity"

[[record]]
polymer_sequence = "QVQLVESGGGLVQAGGSLRLSCAASGFIFAYYAMGWYRQAPGKERELVAAISSGGRTYYADSVKGRFTISRDNAKNTVYLQMNSLKPEDTAVYYCAAYYRLDYDYWGQGTQVTVSS"
property_label = "polyreactivity (PSR sort gate)"
recorded_measurement = "high polyreactivity"

[[record]]
polymer_sequence = "QVQLVESGGVLVQAGGSLRLSCAASGSIFGLYAMGWYRQAPGKERELVAAISRRSVSTYYADSVKGRFTISRDNAKNTVYLQMNSLKPEDTAVYYCAAVTYPYLRSQKGYDGYGYWGHGTQVTVSS"
property_label = "polyreactivity (PSR sort gate)"
recorded_measurement = "high polyreactivity"

[[record]]
polymer_sequence = "QVQLVESGGGLVQAGGRLSLSCAASGSIFNQYAMGWHRQAPGKERELVAAISSDGGRTYYADSVKGRFTISRDNAKITVYLQMNSLKPEDTAVYYCNADFPAYGLECDVYWGQGTQVTVSS"
property_label = "polyreactivity (PSR sort gate)"
recorded_measurement = "low polyreactivity"

[[record]]
polymer_sequence = "QVQLVESGAGLVQAGGSHRLSCAASGRNFYWNARGWYRQAPGKEREFVAAISWSGGSTYADSVKGRFTISRDNAKNTVYLQMNSLKPEDTAVYYCAIRVSRSFRAYDYWGQGTQVTVSS"
property_label = "polyreactivity (PSR sort gate)"
recorded_measurement = "high polyreactivity"


---

- assay-remarks: yeast display, Sf9 membrane polyspecificity reagent, FACS + sequencing; frameworks hold sequencing errors
property-label: polyreactivity (PSR sort gate)

[[record]]
polymer_sequence = "QVQLVESVGGLVQGGGSLRLSCAASGINFYRYALGWYRQAPGKERELVAAINRSGDSTYYADSVKGRFTISRDNAKNTVYLQMNSLKPEDTAVYSCAAQHSIYRNPGLDDYWGQGNQVTVSS"
property_label = "polyreactivity (PSR sort gate)"
recorded_measurement = "high polyreactivity"

[[record]]
polymer_sequence = "QVQLLESGGGLVQAGGSLRLSCAASGSNFYVNAMGWYRQAPGKERELVAAITSTGTTHYADSVKGRFTISRDNAKNTDYLHMNSLKPEDTAVYYCAAYSRYQSRRYYYWGQGTQVTVSS"
property_label = "polyreactivity (PSR sort gate)"
recorded_measurement = "high polyreactivity"

[[record]]
polymer_sequence = "QVHLVESGGGLVQAGGSLRLSCAPSGFIFDYYTMGWYRQAPGKESELVAAITWSGGRTNYADSVKGRFTISRDNAKYTVYLQMNSLKPEDTAVYYCNARRRARGAPYYLYGYSGQGTQVTVSS"
property_label = "polyreactivity (PSR sort gate)"
recorded_measurement = "low polyreactivity"

[[record]]
polymer_sequence = "QVQLVESGGGLVQAGGSLRLSCAASVSIFRKNAMGWYRQAPGKERELVAAITYRTGSTYYADSVKGRFTISRDNAKNTVYLQMNSLKPEDTAVYYCAAQTWGSGYGHIGRRRHDYWGQGTQVTVSS"
property_label = "polyreactivity (PSR sort gate)"
recorded_measurement = "high polyreactivity"

[[record]]
polymer_sequence = "QVQLVESGGGLVQAGGSLRLSCAASGSIFSSYAMGWYRQAPGKERELVAAISSGDSTYYADSVKGRFTISRDNAKNTVYLQMNSLKPEDTAVYYCAAPWYAWGQGTQVTVSS"
property_label = "polyreactivity (PSR sort gate)"
recorded_measurement = "low polyreactivity"

[[record]]
polymer_sequence = "QVQLVESGGGLVQAGVSLRLSCAASGSTFYDIAMGWYRQATGKDRELVAAISYSGASTYYADSVKGRFTISRDNAKNTVYLHINSLKPEDTAVYYCAKTFYTLYWGQGTKVTVSS"
property_label = "polyreactivity (PSR sort gate)"
recorded_measurement = "low polyreactivity"

[[record]]
polymer_sequence = "QVQLVESGGGLVQAGGSLRLICAASGSTFSYNAMGWYRQAPGKEREFVAAITSSGSSTYYADSVKGRFTISRYNAKNTVYLQMNSLKPEDTAVYYCNAEVLFVAGQVQRNSGDYWGQGTQVTVSS"
property_label = "polyreactivity (PSR sort gate)"
recorded_measurement = "low polyreactivity"

[[record]]
polymer_sequence = "QVQLVESGGGLVQAGGSLRLSCAASGITFTVYAMGWYRQAPGKERELVAAITSTGSTNYADSVKGRFTISRDNAKNTVYLQMNSLKPEDTAVYYCAARRSHQYRGPHFNYWGQGTQVTVSS"
property_label = "polyreactivity (PSR sort gate)"
recorded_measurement = "low polyreactivity"

[[record]]
polymer_sequence = "QVQLVESGGGLVQAGGSLRLSCAASGRIFRTYAMGWYRQAPGKERELVAAINSVDRTYYADSVKGRFTISRDNAKNTVYLQMNSLKPEDTAVYYCAATIAPTPGYIIYDYWGQGTQVTVSS"
property_label = "polyreactivity (PSR sort gate)"
recorded_measurement = "high polyreactivity"

[[record]]
polymer_sequence = "QVQLVESGGGLVQAGGSLRLSCAASGRTFVSYAMGWYRQAPGKERELVAAISSSGGSTYYADSVKGRFTISRDNAKNTVYLQMNSLKPEDTAVYYCAADTTTRAYVEMDYWGQGTQVTVSS"
property_label = "polyreactivity (PSR sort gate)"
recorded_measurement = "low polyreactivity"

[[record]]
polymer_sequence = "QVQLEESGGGLVQAGGSLRLSCAASGSTFGYYTMGWYRQAPGKERELVAAISWSGGSTYYADSVKGRFTISRDNAKNTVYLQMNSLKPEDTAVYYCAALGYTYKYYSYYWGQGTQVTVSS"
property_label = "polyreactivity (PSR sort gate)"
recorded_measurement = "high polyreactivity"

[[record]]
polymer_sequence = "QVQLVESGGGLVQAGGSLRLSCAASGSIFRTNAMGWYRQAPGKERELVAAITGSGGSTYYADSVKGRFTISRDNAKNTVYLQMNSLKPVDTAVYYCAADGQLPPRGILASWEFDYWGQGTQVTVSS"
property_label = "polyreactivity (PSR sort gate)"
recorded_measurement = "low polyreactivity"

[[record]]
polymer_sequence = "QVQLVESGVGLVQAGGSLRLSCAASGRIFIKYAMGWYRQAPGKEREFVAAISGRGGSTYYADSVKGRFTISRDNAKNTVYLQMNSLKPEDTAFYYCAKRFFYSGTAAGMYYWGQGTQVTVSS"
property_label = "polyreactivity (PSR sort gate)"
recorded_measurement = "high polyreactivity"

[[record]]
polymer_sequence = "QVQLVESGGGLVQAGGSLRLSCAASGSTFDYYARGWYRQAPGKERELVAGISSSGGRTYYADSVKGRFTISRDNAKNTVYLQMNSLKPEDTAVYYCAARIRVRKHEAFDYWGQGTQVTVSS"
property_label = "polyreactivity (PSR sort gate)"
recorded_measurement = "low polyreactivity"

[[record]]
polymer_sequence = "QVQLVESGGGLVQAGGSLRLSCAASGRTFNFNTMGWYRQSPGKERELVASITSGGSTNYADSVKGRFTISRDNAKNTVYIQMNILKPEDTAVYYFAVTVSGPYAYDYWGQGTQVTVSS"
property_label = "polyreactivity (PSR sort gate)"
recorded_measurement = "low polyreactivity"

[[record]]
polymer_sequence = "QVQLVESGGGLVQAGGSLRLSCAASGFTLANYAMGWYRQAPGKERELVAAISSSTGGTYYADSVKGRFTISRDNAKNTVYLQMNSLKPEDTAVYYCAAEYYFHKYVRMYYWGQGTQVTVSS"
property_label = "polyreactivity (PSR sort gate)"
recorded_measurement = "high polyreactivity"

[[record]]
polymer_sequence = "QVQLVESGGGLVQAGGSLRLSCDASGSTFRGYAMGWYRQAPGKERDLVAAISRYGGSTYYADSVKGRFTISRDNAKTTVYIQMNSLKPEDTAGYYCNARSSKRSSRGYDYWGQGTQVTVSS"
property_label = "polyreactivity (PSR sort gate)"
recorded_measurement = "high polyreactivity"

[[record]]
polymer_sequence = "QVQLVESGGGLVQAGGSLRLSCAASGSSFGWYGMGWYRQAPGKERELVASINWRGSSTYYADSVKGRFTISRDNSKNTVYLQMNSLKPEDTAVYYCATTRDWAYNYWGQGTQVTVSS"
property_label = "polyreactivity (PSR sort gate)"
recorded_measurement = "low polyreactivity"

[[record]]
polymer_sequence = "QVHLVESGGGLVQAGGSLRLSCSASGSTFYAYAMGWYRQARGKERELVARIRWRGGRSYYADSVKGRFTISRDNAKNTVYLQMHSLKPEDTAVYYCAARLYGRYDSQDNYWGQGTQVTVSS"
property_label = "polyreactivity (PSR sort gate)"
recorded_measurement = "high polyreactivity"

[[record]]
polymer_sequence = "QVQLVESGGGLVQAGGSLRLSCAASGSIFKFYAMGWYRQAPGKERELVAAISSSGTSTYYADSVKGRFTISRDNAKNTVYLQMNSLKPEDTAVYYCAARGGVQNEVKGSPYYYWGQGTQVTVSS"
property_label = "polyreactivity (PSR sort gate)"
recorded_measurement = "high polyreactivity"

[[record]]
polymer_sequence = "QVQLVESGGGLVQAGGSLRLSCAASGSTFPEYAMGWYRQAPGKERELVATISWSGGSTDYADSVKGRITISRDNAKNTVYLQMNSLKPEDTAVYYCNKELIPHFDTRESWGQGTQVSVSS"
property_label = "polyreactivity (PSR sort gate)"
recorded_measurement = "low polyreactivity"

